# tested system: EGFR del19/T790M/C797S (Homo sapiens, UniProt P00533, C797S/DEL746-750/T790M)
# Sequence (P00533 with tags, fused parts or gaps DEL746-750/T790M/C797S): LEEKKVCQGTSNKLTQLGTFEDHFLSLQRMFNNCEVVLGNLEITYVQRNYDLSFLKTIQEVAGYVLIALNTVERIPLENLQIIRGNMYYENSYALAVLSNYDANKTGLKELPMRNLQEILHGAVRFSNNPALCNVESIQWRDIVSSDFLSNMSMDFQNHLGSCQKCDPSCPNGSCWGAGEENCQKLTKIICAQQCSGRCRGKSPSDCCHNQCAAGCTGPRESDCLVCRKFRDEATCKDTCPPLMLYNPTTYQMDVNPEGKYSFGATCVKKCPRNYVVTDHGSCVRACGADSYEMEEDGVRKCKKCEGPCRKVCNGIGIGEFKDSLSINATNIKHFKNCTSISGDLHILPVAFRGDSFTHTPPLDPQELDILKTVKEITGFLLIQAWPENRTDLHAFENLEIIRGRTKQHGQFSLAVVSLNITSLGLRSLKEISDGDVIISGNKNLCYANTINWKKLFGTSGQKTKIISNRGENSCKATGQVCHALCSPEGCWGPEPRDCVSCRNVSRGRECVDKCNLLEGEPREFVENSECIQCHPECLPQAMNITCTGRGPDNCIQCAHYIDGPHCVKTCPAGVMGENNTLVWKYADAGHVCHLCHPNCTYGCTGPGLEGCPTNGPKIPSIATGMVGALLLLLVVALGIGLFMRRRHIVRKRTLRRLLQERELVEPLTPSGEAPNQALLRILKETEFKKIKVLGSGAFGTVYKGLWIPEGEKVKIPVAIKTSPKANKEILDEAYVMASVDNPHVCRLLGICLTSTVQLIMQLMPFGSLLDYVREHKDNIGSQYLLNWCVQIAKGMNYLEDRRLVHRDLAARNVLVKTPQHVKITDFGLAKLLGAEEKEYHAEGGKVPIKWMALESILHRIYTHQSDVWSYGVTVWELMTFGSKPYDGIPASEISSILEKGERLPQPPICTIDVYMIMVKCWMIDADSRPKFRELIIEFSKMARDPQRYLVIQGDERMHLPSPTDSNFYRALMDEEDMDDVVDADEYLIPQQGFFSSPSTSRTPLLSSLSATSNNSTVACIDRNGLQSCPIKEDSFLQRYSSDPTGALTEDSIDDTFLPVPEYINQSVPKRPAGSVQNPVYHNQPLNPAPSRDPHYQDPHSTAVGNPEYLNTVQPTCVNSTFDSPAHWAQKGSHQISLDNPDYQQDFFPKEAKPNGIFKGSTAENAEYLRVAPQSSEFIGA
# experimental protocol: Biochemical EGFR kinase assay (Lance Ultra TR-FRET), triple mutant del19/T790M/C797S
# experimental context: Km ATP; read-out: IC50 del19/T790M/C797S (nM) Km ATP
quantity measured: IC50 (nM)

Reference set, count: 5
[[record]]
molecule = "Cn1ccc(-c2cnc(Nc3ccnc(-c4cnn(S(=O)(=O)C5CC5)c4)n3)cc2NC[C@H]2C[C@H](CO)C2)n1"
units = "nM"
val = 0.2

[[record]]
molecule = "O=S(=O)(C1CC1)n1cc(-c2nccc(Nc3cc(NC4CCCC(NCCF)C4)c(-c4ccn(C(F)F)n4)cn3)n2)cn1 (stereo not shown)"
units = "nM"
val = 0.3

[[record]]
molecule = "CC1(O)CCC(Nc2cc(Nc3ccnc(-c4cnn(C5CCCCO5)c4)n3)ncc2-c2ccn(C(F)F)n2)CC1 (stereo not shown)"
units = "nM"
val = 1.9

[[record]]
molecule = "O=S(=O)(C1CC1)n1cc(-c2nccc(Nc3cc(NC4CCC(F)(F)CC4)c(-c4ccn(C(F)F)n4)cn3)n2)cn1"
units = "nM"
val = 11.9

[[record]]
molecule = "O=S(=O)(C1CC1)n1cc(-c2nccc(Nc3cc(OC4CCC(O)CC4)c(-c4ccn(C(F)F)n4)cn3)n2)cn1 (stereo not shown)"
units = "nM"
val = 0.3


a. COc1ccc(-c2nccc(Nc3cc(N[C@H]4CC[C@@](C)(O)CC4)c(-c4ccn(C(F)F)n4)cn3)n2)c(F)n1
b. O=S(=O)(C1CC1)n1cc(-c2nccc(Nc3cc(NN4CCC(O)CC4)c(-c4ccn(C(F)F)n4)cn3)n2)cn1
# compare IC50 for a vs b ; return the one with the smaller value The response must carry the label of the picked entry.
b

A. O=S(=O)(C1CC1)n1cc(-c2nccc(Nc3cc(N[C@H]4CC[C@@H](CC(F)F)CC4)c(-c4ccn(C(F)F)n4)cn3)n2)cn1
B. C[C@]1(O)CC[C@@H](Nc2cc(Nc3ccnc(-c4cnn(CC(F)(F)F)c4)n3)ncc2-c2ccn(C(F)F)n2)CC1
C. C[C@]1(O)CC[C@@H](Nc2cc(Nc3ccnc(-c4cnn(S(=O)(=O)C5CC5)c4)n3)ncc2-c2ccn(C3CC3)n2)CC1
D. COCCn1cc(-c2nccc(Nc3cc(N[C@H]4CC[C@@](C)(O)CC4)c(-c4ccn(C(F)F)n4)cn3)n2)cn1
Put the molecules in ascending order of IC50. A complete answer lists every label in the requested sequence.
C, D, B, A
(C: 0.1 nM, D: 0.2 nM, B: 0.5 nM, A: 11 nM)
